# System: myeloid leukemia patient primary cells Pat.11
# run-description: cell viability (% survival relative to DMSO control); higher = less cytotoxic
# experimental-conditions: 10000 nM; 72 h
property: cell viability (%)
Your answer should be a plain number; it is taken to be in %.

Previously resolved entries follow.
C=C(C)[C@H]1Cc2c(ccc3c2O[C@@H]2COc4cc(OC)c(OC)cc4[C@@H]2C3=O)O1 : 73.9
Cc1c(-c2ccc(-c3ccccc3F)cc2)nc2ccc(F)cc2c1C(=O)O : 97.7
O=C(O)Cn1nnc(-c2cc(N3CCC(Oc4cc(F)ccc4Br)CC3)no2)n1 : 97
COc1cc(/C=C/C(=O)N2CCC=CC2=O)cc(OC)c1OC : 5.04

Query :: Specify reported cell viability for the molecule shown: CN(C)C(=O)n1nnnc1Cc1ccc(-c2ccccc2)cc1
Result :: 22

Where do the numbers come from? From the supplement of paper PMC8671470.
